# credit: the supplement of paper PMC10307832

- System: NCI-H2170
- method_summary: relative viability (nuclei count vs DMSO), 5 days (fraction); higher = more cells survive
- settings: first compound 8 µM
Below, each entry is listed with its recorded relative viability.

compound	relative viability
CCCCCCCCCCCC1=C(O)C(=O)C=C(O)C1=O [Embelin] + C[C@@H](Oc1cc(-c2cnn(C3CCNCC3)c2)cnc1N)c1c(Cl)ccc(F)c1Cl [Crizotinib] (partner 1 µM)	1.36
CCCCCCCCCCCC1=C(O)C(=O)C=C(O)C1=O [Embelin] + Cc1nc(NC(=O)N2CCC[C@H]2C(N)=O)sc1-c1ccnc(C(C)(C)C(F)(F)F)c1 [Alpelisib] (partner 2 µM)	0.777
CCCCCCCCCCCC1=C(O)C(=O)C=C(O)C1=O [Embelin] + Nc1nc2[nH]cc(CCc3ccc(C(=O)N[C@@H](CCC(=O)O)C(=O)O)cc3)c2c(=O)[nH]1 [Pemetrexed] (partner 0.2 µM)	0.274
CCCCCCCCCCCC1=C(O)C(=O)C=C(O)C1=O [Embelin] + Nc1ncn([C@H]2C[C@H](O)[C@@H](CO)O2)c(=O)n1 [Decitabine] (partner 2 µM)	0.456
CCCCCCCCCCCC1=C(O)C(=O)C=C(O)C1=O [Embelin] + Cc1cc(Nc2cc(N3CCN(C)CC3)nc(Sc3ccc(NC(=O)C4CC4)cc3)n2)n[nH]1 [Tozasertib] (partner 0.1 µM)	0.731
CCCCCCCCCCCC1=C(O)C(=O)C=C(O)C1=O [Embelin] + CS(=O)(=O)CCNCc1ccc(-c2ccc3ncnc(Nc4ccc(OCc5cccc(F)c5)c(Cl)c4)c3c2)o1 [Lapatinib] (partner 2 µM)	0.253
CCCCCCCCCCCC1=C(O)C(=O)C=C(O)C1=O [Embelin] + CCNC(=O)c1noc(-c2cc(C(C)C)c(O)cc2O)c1-c1ccc(CN2CCOCC2)cc1 [Luminespib] (partner 0.01 µM)	0.589
CCCCCCCCCCCC1=C(O)C(=O)C=C(O)C1=O [Embelin] + O=C(c1cc(Cc2n[nH]c(=O)c3ccccc23)ccc1F)N1CCN(C(=O)C2CC2)CC1 [Olaparib] (partner 8 µM)	0.592
CCCCCCCCCCCC1=C(O)C(=O)C=C(O)C1=O [Embelin] + CS(=O)(=O)N1CCN(Cc2cc3nc(-c4cccc5[nH]ncc45)nc(N4CCOCC4)c3s2)CC1 [Pictilisib] (partner 1 µM)	0.286
